Just for reference, patent US10316017B2 is where these values come from.

- Tested on: TNFα production in LPS-stimulated human monocytes
- assay text: Cot Monocyte TNFα Cell Based Assay
- details: Homo sapiens, Monocyte, LPS-stimulated human monocytes, TNFα TR-FRET; read-out: EC50 TNF
Reported EC50 values are given for each entry in this list.

# structure smiles, unit descriptor, EC50
measured = [
    ("CC(C)(C)CNc1c(C#N)cnc2c(C#N)cc(N[C@@H](c3ccccc3)c3cn(C4(C(F)F)CC4)nn3)cc12", "nM", 103),
    ("Cc1c([C@H](Nc2cc(Cl)c3ncc(C#N)c(NCC(C)(C)C)c3c2)c2cn(C3(C(F)(F)F)CC3)nn2)cccc1-n1cnnn1", "nM", 73),
    ("[2H][C@](Nc1cc(Cl)c2ncc(C#N)c(NCC(C)(C)C)c2c1)(c1ccc(Cl)cc1)c1cn(C2CCN(C(C)(C)C)CC2)nn1", "nM", 98),
    ("Cc1c(C#N)cccc1[C@H](Nc1cc(Cl)c2ncc(C#N)c(NCC(C)(C)C(F)(F)F)c2c1)c1cn(C2(C3CC3)CC2)nn1", "nM", 90),
    ("Cc1c(-c2cnn(C)c2)cccc1[C@H](Nc1cc(C#N)c2ncc(C#N)c(NCC(C)(C)C)c2c1)c1cn(C2(C(F)(F)F)CC2)nn1", "nM", 61),
    ("Cc1c(-c2cn[nH]c2)cccc1[C@H](Nc1cc(Cl)c2ncc(C#N)c(NCC(C)(C)C)c2c1)c1cn(C2(C(F)(F)F)CC2)nn1", "nM", 66),
    ("Cc1c(-c2ccncc2)cccc1[C@H](Nc1cc(C#N)c2ncc(C#N)c(NCC(C)(C)C)c2c1)c1cn(C2(C(F)F)CC2)nn1", "nM", 69),
]

====

- System: TNFα production in LPS-stimulated human monocytes
- assay text: Cot Monocyte TNFα Cell Based Assay
- details: Homo sapiens, Monocyte, LPS-stimulated human monocytes, TNFα TR-FRET; read-out: EC50 TNF

# structure smiles, unit descriptor, EC50
rows = [
    ("Cc1c(-c2ncco2)cccc1[C@H](Nc1cc(Cl)c2ncc(C#N)c(NCC(C)(C)C)c2c1)c1cn(C2(C(F)F)CC2)nn1", "nM", 163),
    ("Cc1ccccc1[C@H](Nc1cc(C#N)c2ncc(C#N)c(NCC(C)(C)C)c2c1)c1cn(C2(C(F)F)CC2)nn1", "nM", 85),
    ("CC[C@@H](Nc1c(C#N)cnc2c(C#N)cc(N[C@@H](c3cccc(C(N)=O)c3)c3cn(C4CC4)nn3)cc12)c1ccccc1", "nM", 141),
]

====

- test target: human Cot catalytic domain (30-397 amino acids) (Homo sapiens)
- Construct: Purified recombinant human Cot catalytic domain (30-397 amino acids) was purchased from Cama Biosciences; purchased Cama Biosciences (so in the source)
- Sequence (P41279 30-397): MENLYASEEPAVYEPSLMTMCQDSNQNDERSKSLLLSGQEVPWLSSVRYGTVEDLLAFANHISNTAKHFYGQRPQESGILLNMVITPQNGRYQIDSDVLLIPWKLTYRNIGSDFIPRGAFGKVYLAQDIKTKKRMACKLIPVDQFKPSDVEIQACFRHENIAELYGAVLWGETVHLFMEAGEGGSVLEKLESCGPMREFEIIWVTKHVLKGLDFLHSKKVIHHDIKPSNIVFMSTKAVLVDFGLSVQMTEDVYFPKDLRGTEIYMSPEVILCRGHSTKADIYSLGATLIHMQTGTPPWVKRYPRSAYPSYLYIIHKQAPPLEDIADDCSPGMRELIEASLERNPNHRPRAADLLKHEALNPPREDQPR
- assay text: High Throughput Cot Biochemical Assay (KinEASE TR-FRET)
- details: Cot KinEASE TR-FRET (HTRF) biochemical assay, 400 μM ATP; read-out: IC50 HTRF

# compound, IC50 (µM)
data = [
    ("CC(C)n1cc([C@@H](Nc2cc(Cl)c3ncc(C#N)c(Nc4cnc(F)c(F)c4)c3c2)c2cccc(-c3nccn3C)c2)nn1", 0.004),
    ("CCC(Nc1c(C#N)cnc2c(Cl)cc(N[C@@H](c3ccc(F)cc3)c3c[nH]nn3)cc12)c1ccccc1F (stereo partly drawn)", 0.125),
    ("N#Cc1ccccc1[C@H](Nc1cc(Cl)c2ncc(C#N)c(Nc3cnc(F)c(F)c3)c2c1)c1c[nH]nn1", 0.024),
    ("[2H][C@](Nc1cc(Cl)c2ncc(C#N)c(Nc3cncc(F)c3)c2c1)(c1ccc(F)cc1)c1cn(C(C)C)nn1", 0.055),
    ("N#CCC[C@@H](Nc1c(C#N)cnc2c(Cl)cc(N[C@H](c3cn(CC(N)=O)nn3)c3ccccc3Cl)cc12)c1ccccc1", 0.004),
    ("CC(C)(C)N1CCC(n2cc([C@@H](Nc3cc(Cl)c4ncc(C#N)c(Nc5cnc(F)c(Cl)c5)c4c3)c3ccccc3)nn2)CC1", 0.004),
]

====

- test target: human Cot catalytic domain (30-397 amino acids) (Homo sapiens)
- Construct: Purified recombinant human Cot catalytic domain (30-397 amino acids) was purchased from Cama Biosciences; purchased Cama Biosciences (so in the source)
- assay text: High Throughput Cot Biochemical Assay (KinEASE TR-FRET)
- details: Cot KinEASE TR-FRET (HTRF) biochemical assay, 400 μM ATP; read-out: IC50 HTRF
Reported log10(IC50) values are given for each entry in this list.
value type: log10(IC50) (log10 of the value in nM)

# molecule, test target, log10(IC50)
data = [
    ("[2H]C(Nc1cc(Cl)c2ncc(C#N)c(NC3C4CCCC43)c2c1)(c1ccc(F)cc1)c1cn(C2CC2)nn1 (stereo in doubt)", "human Cot catalytic domain (30-397 amino acids) (Homo sapiens)", 0.90),
    ("CC(C)CNc1c(C#N)cnc2c(Cl)cc(N[C@@H](c3ccc(F)cc3)c3cn(C4CC4)nn3)cc12", "human Cot catalytic domain (30-397 amino acids) (Homo sapiens)", 1.76),
    ("CC(C)(C)CNc1c(C#N)cnc2c(Br)cc(N[C@@H](c3cccc(C(=O)N4CC(O)C4)c3)c3cn(C4CC4)nn3)cc12", "human Cot catalytic domain (30-397 amino acids) (Homo sapiens)", 0.60),
    ("CC(C)(C)CNc1c(C#N)cnc2c(Cl)cc(N[C@@H](c3ccc(F)cc3)c3cn(-c4cccnc4)nn3)cc12", "human Cot catalytic domain (30-397 amino acids) (Homo sapiens)", 1.56),
    ("CC[C@@H](Nc1c(C#N)cnc2c(Cl)cc(N[C@@H](c3ccc(F)cc3)c3cn(C(C)C)nn3)cc12)c1ccccc1C", "human Cot catalytic domain (30-397 amino acids) (Homo sapiens)", 2.04),
    ("[2H][C@](Nc1ccc2ncc(C#N)c(NCC(C)(C)C)c2c1)(c1ccc(F)cc1)c1cn(C2CC2)nn1", "human Cot catalytic domain (30-397 amino acids) (Homo sapiens)", 1.32),
    ("[2H][C@](Nc1cc(C(F)(F)F)c2ncc(C#N)c(N[C@H](CC)c3ccccc3)c2c1)(c1ccc(F)cc1)c1cn(C2CC2)nn1", "human Cot catalytic domain (30-397 amino acids) (Homo sapiens)", 2.20),
    ("[2H][C@](Nc1cc(Cl)c2ncc(C#N)c(NCCc3nccs3)c2c1)(c1ccc(F)cc1)c1cn(C2CC2)nn1", "human Cot catalytic domain (30-397 amino acids) (Homo sapiens)", 2.40),
]

====

- test target: human Cot catalytic domain (30-397 amino acids) (Homo sapiens)
- Construct: Purified recombinant human Cot catalytic domain (30-397 amino acids) was purchased from Cama Biosciences; purchased Cama Biosciences (so in the source)
- assay text: High Throughput Cot Biochemical Assay (KinEASE TR-FRET)
- details: Cot KinEASE TR-FRET (HTRF) biochemical assay, 400 μM ATP; read-out: IC50 HTRF
- Text: Example 61: High Throughput Cot Biochemical Assay In this assay, Cot-catalyzes the phosphorylation of a XL665-labeled peptide substrate. Europium conjugated phospho-tyrosine specific antibody binds the resulting phosphorylated peptide. […] Purified recombinant human Cot catalytic domain (30-397 amino acids) was purchased from Cama Biosciences. […]
Threshold-based label: IC50 under 30 nM gives Satisfied, IC50 not under 30 nM gives Not satisfied.

# molecule, group label
records = [
    ("CC(C)(C)CNc1c(C#N)cnc2c(Cl)cc(N[C@H](c3cn(C4CC4)nn3)c3ccccc3OC(F)(F)F)cc12 [Example 122]", "Satisfied"),
    ("CC(=O)c1cccc([C@H](Nc2cc(Cl)c3ncc(C#N)c(Nc4ccc(F)c(Cl)c4)c3c2)c2cn(C3CCN(C(C)(C)C)CC3)nn2)c1 [Compound 21]", "Satisfied"),
    ("CC[C@@H](Nc1c(C#N)cnc2c(Cl)cc(N[C@H](c3cn(C4CC4)nn3)c3ccccc3-c3ccccc3)cc12)c1ccccc1 [Example 96]", "Not satisfied"),
    ("[2H][C@@](Nc1cc(Cl)c2ncc(C#N)c(NCC(C)(C)C)c2c1)(c1cn(CC2(F)COC2)nn1)c1ccccc1Cl [Example 103]", "Not satisfied"),
    ("[2H][C@](Nc1cc(Cl)c2ncc(C#N)c(N[C@H](C)c3ccccc3)c2c1)(c1ccc(F)cc1)c1cn(C2CC2)nn1 [Example 227]", "Satisfied"),
    ("[2H][C@](Nc1cc(Cl)c2ncc(C#N)c(NN3CCCC3)c2c1)(c1ccc(F)cc1)c1cn(C2CC2)nn1 [Example 179]", "Not satisfied"),
    ("[2H][C@](Nc1cc(Cl)c2ncc(C#N)c(NC(C)CCO)c2c1)(c1ccc(F)cc1)c1cn(C2CC2)nn1 (stereo partly drawn) [Example 174]", "Not satisfied"),
    ("N#Cc1cnc2c(Cl)cc(N[C@@H](c3ccc(F)cc3)c3cn(C4CCOCC4)nn3)cc2c1Nc1cnc(F)c(F)c1 [Example 380]", "Not satisfied"),
    ("N#Cc1cnc2c(Cl)cc(N[C@@H](c3ccc(F)cc3)c3cn(CC4(O)CC4)nn3)cc2c1Nc1cnc(F)c(F)c1 [Example 384]", "Satisfied"),
    ("[2H]C(Nc1cc(Cl)c2ncc(C#N)c(N[C@H]3CCCC[C@H]3NC(=O)OC(C)(C)C)c2c1)(c1ccc(F)cc1)c1cn(C2CC2)nn1 (stereo in doubt) [Example 231]", "Not satisfied"),
    ("[2H][C@](Nc1cc(Cl)c2ncc(C#N)c(NCC(C)(C)C)c2c1)(c1cn(CC#N)nn1)c1ccccc1Cl [Example 119]", "Satisfied"),
    ("[2H][C@](Nc1cc(Cl)c2ncc(C#N)c(N[C@@H](CC#N)c3ccccc3)c2c1)(c1cccc(C#N)c1)c1cn(C2CC2)nn1 [Example 295]", "Not satisfied"),
    ("[2H][C@](Nc1cc(Cl)c2ncc(C#N)c(N[C@H](CCC#N)c3ccccc3)c2c1)(c1ccc(Cl)cc1)c1cn(C2CC2)nn1 [Example 74]", "Satisfied"),
    ("[2H][C@](Nc1cc(Cl)c2ncc(C#N)c(N[C@@H]3CCCCC3(C)C)c2c1)(c1ccc(F)cc1)c1cn(C2CC2)nn1 [Example 318]", "Not satisfied"),
    ("[2H][C@](Nc1cc(Cl)c2ncc(C#N)c(N[C@@H]3C[C@H]3C(F)(F)F)c2c1)(c1ccc(F)cc1)c1cn(C2CC2)nn1 [Example 154]", "Not satisfied"),
    ("CC(C)(C)N1CCC(n2cc([C@@H](Nc3cc(Cl)c4ncc(C#N)c(Nc5ccc(F)c(Cl)c5)c4c3)c3cccc(-c4ncco4)c3)nn2)CC1 [Compound 23]", "Satisfied"),
    ("[2H][C@](Nc1cc(Cl)c2ncc(C#N)c(N[C@H](CC#N)C(C)(C)C)c2c1)(c1ccc(F)cc1)c1cn(C2CC2)nn1 [Example 247]", "Satisfied"),
    ("N#Cc1cnc2c(Cl)cc(N[C@@H](c3ccc(F)cc3)c3cn(C4CC4)nn3)cc2c1NC(CN1CCOCC1)c1ccccc1 (stereo partly drawn) [Example 322]", "Not satisfied"),
]
